Assay: qHTS Assay for Lipid Storage Modulators (AID 1519)
Details: Drosophila S3 cells, BODIPY lipid droplet/cell ratio, laser cytometry; measured here: cell count channel max response; cells loaded with oleic acid
Results filed as inconclusive are left out.
// reported max response per item
Put down the number, then write its unit next to it.

{"COMPOUND": "NS(=O)(=O)c1cc(Cl)c(Cl)c(S(N)(=O)=O)c1", "max response": "-9.93%"}
{"COMPOUND": "C=C1c2cccc(O)c2C(O)=C2C(=O)[C@@]3(O)C(O)=C(C(N)=O)C(=O)[C@@H](N(C)C)[C@@H]3[C@@H](O)[C@H]12", "max response": "-8.47%"}
{"COMPOUND": "Nc1ccn([C@@H]2O[C@H](CO)[C@@H](O)[C@H]2O)c(=O)n1", "max response": "-16.3%"}
{"COMPOUND": "COc1ccc2ccc(=O)oc2c1CC=C(C)C", "max response": "4.48%"}
{"COMPOUND": "CCC(c1ccc(O)cc1)C(CC)c1ccc(O)cc1 (stereo unspecified)", "max response": "10.5%"}

Here's the next entry for you.
Exercise: GET /values?readout=max response&item= CS(=O)(=O)c1ccc(C2=C(c3ccccc3)C(=O)OC2)cc1
Key: 15.3%
